test_target: T1, Human ST2 (human, UniProt Q01638 19-328, limits assumed)
T1 construct: also called human ST2 protein; Interleukin 1 receptor-like 1
T1 sequence (looked up): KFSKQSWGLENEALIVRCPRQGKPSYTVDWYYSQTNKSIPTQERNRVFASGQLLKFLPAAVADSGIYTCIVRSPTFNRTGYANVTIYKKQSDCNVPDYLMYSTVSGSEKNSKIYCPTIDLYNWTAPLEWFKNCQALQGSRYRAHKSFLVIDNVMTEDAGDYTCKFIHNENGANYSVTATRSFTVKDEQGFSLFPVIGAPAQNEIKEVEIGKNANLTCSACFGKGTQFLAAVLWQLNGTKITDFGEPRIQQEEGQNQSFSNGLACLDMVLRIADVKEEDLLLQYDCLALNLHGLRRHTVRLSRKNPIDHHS
experimental_details: SPR (Carterra), antibody immobilized, ST2 analyte
Some binders, each annotated with its measured pKd.
Formally, pKd is defined as -log10 of the concentration c, with c in mol/L.

Human ST2 IgG1 Antibody 32 (antibody, V domains shown, IgG1; also called ST2 Antibody 32) VH: EVQLLESGGGLVQPGGSLRLSCAASGFTFSNSDMNWVRQAPGKGLEWVSFISSSSGYTYYADSVKGRFTISRDNSKNTLYLQMNSLRAEDTAVYYCARANNNWNFYFDYWGQGTLVTVSS VL: DIQMTQSPSSLSASVGDRVTITCRASQSINNWLAWYQQKPGKAPKLLIYSASSLQSGVPSRFSGSGSGTDFTLTISSLQPEDFATYYCQQSYDTPITFGQGTKVEIKR: 6.60
Human ST2 IgG1 Antibody 38 (antibody, V domains shown, IgG1; also called ST2 Antibody 38) VH: QVQLVQSGAEVKKPGSSVKVSCKASGGTFSSYAISWVRQAPGQGLEWMGTIIPMFGIADYAQKFQGRVTITADESTSTAYMELSSLRSEDTAVYYCARSSRSSSWYNWYFDLWGRGTLVTVSS VL: EIVMTQSPATLSVSPGERATLSCRASQSISSSYLAWYQQKPGQAPRLLIYGASTRATGIPARFSGSGSGTEFTLTISSLQSEDFAVYYCQQYYTTPWTFGQGTKVEIKR: 7.77

Now turn to the next binder.
QUERY: State the recorded pKd for this entry: Human ST2 IgG1 Antibody 21 (antibody, V domains shown, IgG1; also called ST2 Antibody 21) VH: QVQLVQSGAEVKKPGASVKVSCKASGYTFSNHYMHWVRQAPGQGLEWMGWVNPTSGNTGYAQKFQGRVTMTRDTSTSTVYMELSSLRSEDTAVYYCARDLGVTYFDLWGRGTLVTVSS VL: DIQMTQSPSSLSASVGDRVTITCRASQGISSWLAWYQQKPGKAPKLLIYEASHLETGVPSRFSGSGSGTDFTLTISSLQPEDFATYYCLQDYNYPLTFGGGTKVEIKR
RESULT: 6.09

src = patent US20210403579A1
